Target: mGAT4 (Mus musculus, UniProt P31650)
Construct: full-length transporter stably expressed in HEK293 cells
Sequence (P31650 whole entry): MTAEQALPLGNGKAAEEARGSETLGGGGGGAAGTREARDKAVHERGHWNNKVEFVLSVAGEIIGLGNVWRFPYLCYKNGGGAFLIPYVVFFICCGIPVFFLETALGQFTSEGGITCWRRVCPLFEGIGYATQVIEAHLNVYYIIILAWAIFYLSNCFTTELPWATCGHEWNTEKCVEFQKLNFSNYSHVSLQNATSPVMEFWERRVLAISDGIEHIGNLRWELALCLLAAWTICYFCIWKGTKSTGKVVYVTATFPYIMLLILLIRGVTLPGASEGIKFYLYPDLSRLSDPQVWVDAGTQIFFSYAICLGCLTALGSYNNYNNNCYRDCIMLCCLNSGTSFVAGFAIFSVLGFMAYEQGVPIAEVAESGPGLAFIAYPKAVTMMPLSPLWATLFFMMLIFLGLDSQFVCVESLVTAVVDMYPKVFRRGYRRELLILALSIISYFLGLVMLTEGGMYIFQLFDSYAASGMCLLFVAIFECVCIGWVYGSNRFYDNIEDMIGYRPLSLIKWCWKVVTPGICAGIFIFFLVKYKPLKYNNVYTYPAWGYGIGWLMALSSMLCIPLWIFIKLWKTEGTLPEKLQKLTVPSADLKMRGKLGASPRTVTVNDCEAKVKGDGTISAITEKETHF
Assay: [3H]GABA uptake, intact HEK293 cells
Measurement Name: IC50 (µM)

Compound	Measurement Name	Test Value
O=C(O)C1CCCN(CC=C=C(c2ccc(F)cc2)c2ccc(F)cc2)C1 (racemic) [rac-8c]	IC50	30.2

1: Cc1ccc(C(=C=CCCN2CCCC(C(=O)O)C2)c2ccc(C)cc2)cc1 (racemic) [rac-11b]
2: O=C(O)C1CCCN(CC=C=C(c2ccc(Cl)cc2)c2ccc(Cl)cc2)C1 (racemic) [rac-8d]
IN: Endpoint returns the identifier whose IC50 is numerically larger, either 1 or 2 . Selection: enter the item's label.
OUT: 1
(1: 83.2 µM, 2: 0.832 µM)

I: O=C(O)C1CCCN(CCC=C=C(c2ccccc2)c2ccc(-c3ccccc3)cc2)C1 (racemic) [11f]
II: O=C(O)[C@H]1CCCN(CC=C=C(c2ccc(Cl)cc2)c2ccc(Cl)cc2)C1 [(S)-8d]
IN: Endpoint returns the identifier whose IC50 is numerically larger, either I or II . Selection: enter the item's label.
OUT: I
(I: 12.6 µM, II: 0.257 µM)

A: Cc1ccc(C(=C=CCN2CCCC(C(=O)O)C2)c2ccc(C)cc2)cc1 (racemic) [rac-8b]
B: O=C(O)C1CCCN(CCC=C=C(c2ccc(Cl)cc2)c2ccc(Cl)cc2)C1 (racemic) [rac-11d]
IN: Which record shows the lower IC50: the first, A , or the second, B ? Selection: enter the item's label.
OUT: A

I: O=C(O)C1CCCN(CC=C=C(c2ccccc2)c2ccc(-c3ccccc3)cc2)C1 (racemic) [8f]
II: O=C(O)[C@@H]1CCCN(CC=C=C(c2ccc(Cl)cc2)c2ccc(Cl)cc2)C1 [(R)-8d]
IN: Which record shows the lower IC50: the first, I , or the second, II ? Selection: enter the item's label.
OUT: II

###

Molecular target: mGAT1 (Mus musculus, UniProt P31648)
Construct: gene Slc6a1; full-length transporter stably expressed in HEK293 cells
Test: [3H]GABA uptake, intact HEK293 cells
Type: cell-based
Measurement Name: IC50 (µM)

Solved cases (4 shown):
Compound	System Under Test	Reading Unit	IC50
O=C(O)C1CCCN(CCC=C=C(c2ccccc2)c2ccccc2)C1 (racemic) [rac-11a]	mGAT1 (Mus musculus, UniProt P31648)	µM	24.5
O=C(O)C1CCCN(CCC=C=C(c2ccc(Cl)cc2)c2ccc(Cl)cc2)C1 (racemic) [rac-11d]	mGAT1 (Mus musculus, UniProt P31648)	µM	1.91
Cc1ccc(C(=C=CCCN2CCCC(C(=O)O)C2)c2ccc(C)cc2)cc1 (racemic) [rac-11b]	mGAT1 (Mus musculus, UniProt P31648)	µM	14.1
O=C(O)[C@@H]1CCCN(CC=C=C(c2ccc(Cl)cc2)c2ccc(Cl)cc2)C1 [(R)-8d]	mGAT1 (Mus musculus, UniProt P31648)	µM	0.155

P: O=C(O)C1CCCN(CC=C=C(c2ccc(F)cc2)c2ccc(F)cc2)C1 (racemic)
Q: O=C(O)C1CCCN(CCC=C=C(c2ccccc2)c2ccc(-c3ccccc3)cc2)C1 (racemic) [11f]
IN: Endpoint returns the identifier whose IC50 is numerically larger, either P or Q . Selection: enter the item's label.
OUT: Q
(Q: 4.68 µM, P: 1.07 µM)
